experimental-target: T1, rat collagen, acid soluble, type I, rat tail (Upstate 08-115) (rat, UniProt P02454 152-1207; P02466 86-1125)
T1 construct: tissue extract, gelled and dried in wells; also called dried rat collagen
T1 sequence (P02454 152-1207, chain 1 of 2): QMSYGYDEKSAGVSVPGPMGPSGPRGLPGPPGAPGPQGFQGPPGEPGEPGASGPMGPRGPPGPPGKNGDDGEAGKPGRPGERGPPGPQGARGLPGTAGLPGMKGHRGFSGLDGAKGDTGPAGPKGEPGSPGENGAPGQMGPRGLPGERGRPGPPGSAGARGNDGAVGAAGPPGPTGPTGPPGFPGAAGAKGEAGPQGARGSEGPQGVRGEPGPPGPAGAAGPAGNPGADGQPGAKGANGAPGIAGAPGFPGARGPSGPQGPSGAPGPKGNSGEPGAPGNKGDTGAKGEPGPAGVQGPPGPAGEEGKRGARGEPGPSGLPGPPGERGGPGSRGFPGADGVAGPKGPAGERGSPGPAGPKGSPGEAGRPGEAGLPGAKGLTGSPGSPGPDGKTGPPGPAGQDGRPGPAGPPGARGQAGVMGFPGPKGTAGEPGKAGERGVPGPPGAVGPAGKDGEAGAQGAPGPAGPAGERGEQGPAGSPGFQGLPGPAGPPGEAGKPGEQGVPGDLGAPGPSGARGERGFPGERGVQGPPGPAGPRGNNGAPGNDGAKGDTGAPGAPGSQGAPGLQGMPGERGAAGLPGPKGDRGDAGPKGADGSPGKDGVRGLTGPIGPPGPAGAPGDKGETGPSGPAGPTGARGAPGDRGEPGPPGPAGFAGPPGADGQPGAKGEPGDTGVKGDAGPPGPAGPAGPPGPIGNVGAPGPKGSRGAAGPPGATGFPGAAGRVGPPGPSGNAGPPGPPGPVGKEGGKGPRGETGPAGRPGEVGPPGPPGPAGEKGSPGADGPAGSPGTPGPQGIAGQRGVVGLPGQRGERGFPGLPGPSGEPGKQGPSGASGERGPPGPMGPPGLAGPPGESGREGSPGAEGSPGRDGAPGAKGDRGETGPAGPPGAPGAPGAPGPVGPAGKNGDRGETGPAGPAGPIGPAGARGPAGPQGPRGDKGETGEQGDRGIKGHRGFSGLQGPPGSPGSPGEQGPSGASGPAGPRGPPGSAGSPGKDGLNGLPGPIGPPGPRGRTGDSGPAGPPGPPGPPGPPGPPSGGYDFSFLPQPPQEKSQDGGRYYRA
T1 sequence (P02466 86-1125, chain 2 of 2): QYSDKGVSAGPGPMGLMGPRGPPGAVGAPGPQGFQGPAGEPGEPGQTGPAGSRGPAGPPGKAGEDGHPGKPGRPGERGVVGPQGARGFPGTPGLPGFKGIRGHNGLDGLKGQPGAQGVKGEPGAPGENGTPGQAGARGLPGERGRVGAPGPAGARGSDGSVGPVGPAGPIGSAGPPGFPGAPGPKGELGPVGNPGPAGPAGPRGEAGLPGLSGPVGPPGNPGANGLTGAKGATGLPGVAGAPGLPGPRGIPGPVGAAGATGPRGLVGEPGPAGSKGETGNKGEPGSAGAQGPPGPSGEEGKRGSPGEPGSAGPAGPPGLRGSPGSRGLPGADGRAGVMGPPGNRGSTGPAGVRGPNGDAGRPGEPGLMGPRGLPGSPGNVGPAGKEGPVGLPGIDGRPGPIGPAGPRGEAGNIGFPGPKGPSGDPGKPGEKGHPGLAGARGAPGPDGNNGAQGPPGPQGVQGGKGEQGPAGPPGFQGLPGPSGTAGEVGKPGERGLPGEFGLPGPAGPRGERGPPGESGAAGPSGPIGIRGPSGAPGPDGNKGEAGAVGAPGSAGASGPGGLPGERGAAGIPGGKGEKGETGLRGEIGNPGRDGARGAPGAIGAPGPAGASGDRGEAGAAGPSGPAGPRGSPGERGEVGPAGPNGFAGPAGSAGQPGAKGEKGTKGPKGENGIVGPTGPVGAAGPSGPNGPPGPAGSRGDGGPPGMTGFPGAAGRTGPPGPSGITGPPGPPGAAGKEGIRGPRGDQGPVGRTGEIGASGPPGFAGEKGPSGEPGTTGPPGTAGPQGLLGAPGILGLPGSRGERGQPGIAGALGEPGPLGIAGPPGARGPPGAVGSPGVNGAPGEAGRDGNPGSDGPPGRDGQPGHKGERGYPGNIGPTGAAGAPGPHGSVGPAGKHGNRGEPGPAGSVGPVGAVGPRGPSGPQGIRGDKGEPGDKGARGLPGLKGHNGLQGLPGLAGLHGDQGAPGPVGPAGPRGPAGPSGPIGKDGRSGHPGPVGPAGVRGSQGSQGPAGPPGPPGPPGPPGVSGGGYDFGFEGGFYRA
assay: dried collagen assay
Bridge positions count the residues as written; N and C are the ends. Square brackets hold non-standard residues; d marks the D form. Primed or numbered codes have the meaning given here. Ends that are not written are not given here. Phe(4-tBu) = CC(C)(C)c1ccc(C[C@H](N)C(=O)O)cc1; 1Nal = N[C@@H](Cc1cccc2ccccc12)C(=O)O; Bta = N[C@@H](Cc1csc2ccccc12)C(=O)O; NMeA = CN[C@@H](C)C(=O)O; Gd^T″ = GdDTPA-thiourea
endpoint-name: % bound (%)

binder	% bound, %
{Gd^T″}-GQWHCTTRFPHH[1Nal]CLYG (disulfide 5-14) [Compound ID 867]	48
{Gd^T″}-DWTC[Phe(4-tBu)]GDEYTWHCNYE (disulfide 4-13 (inferred); not fully specified (C-terminus)) [Compound ID 827]	20
{Gd^T″}-GQWHCTTRFPK(Gd^T″)HYCLYG (disulfide 5-14 (inferred)) [Compound ID 958]	33

[1] {Gd^T″}-GQWHCTTRF[NMeA]HHYCLYG (disulfide 5-14 (inferred)) [Compound ID 938]
[2] {Gd^T″}-GQ[Bta]HCTTRFPHHYCLYG (disulfide 5-14) [Compound ID 868]
Enquiry: # argmax over % bound for candidates 1 and 2 To answer, give the label that identifies your chosen option.
Return: 2
